The values you see were collected from the supplement of paper PMC10724198.

protein stability index reference
Tested on: Saccharomyces cerevisiae;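 note: PSI is a weighted mean of sequencing reads over stability bins, variants kept only with over 10 reads, mCherry proximal and sfGFP distal, peptide attached via GGGS linker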
Assay: protein stability index of tFT-peptide fusion (C-terminal peptide) (PSI (0-1 scale)); higher = more stable (slower turnover)
Settings: genetic background: cdc34-1; temperature: 37 C
PARAMETER_MEASURED: protein stability index

SEQUENCE_TEXT | RESULT_VALUE
PLPSRLRRFVPV | 0.656
GNRDLVNTSVEG | 0.679
SWVSVLSELLAC | 0.224
LVFPRWACSLVF | 0.344
FVFCGVVFLFLL | 0.399
ALPLRSNILSVF | 0.446
SFSFCCLLASFV | 0.605
SQVILFFLSLCR | 0.607
GSDGVGGTVLYA | 0.685
FHICTQLIFITC | 0.061
